- System: KRas-mediated Phosphorylation of ERK in AsPC-1 cells
- ASSAY_COMMENT: Cisbio HTRF pERK assay, AsPC-1 cells
- Assay type: cell-based
- CONDITION_DETAILS: 3 hrs compound, read-out: Inhibition (HTRF IC50 nM) of KRas-mediated Phosphorylation of ERK, AsPC-1
ATTRIBUTE_MEASURED: IC50
The answer consists of two parts: a number and, after it, its unit.

Recorded results for 5 compounds are shown here.
>  <COMPOUND>
Cc1c(F)c(N)nc(-c2c(Cl)cc3c(NC(C)c4cccnc4N)nc(OC[C@@]45CCCN4C[C@H](F)C5)nc3c2F)c1C(F)(F)F (single isomer, unassigned; isomer 1) [Example 172]

>  <IC50>
794 nM

$$$$
>  <COMPOUND>
Cc1c(F)c(N)nc(-c2c(Cl)cc3c(NC(C)c4cccnc4N)nc(OC[C@@]45CCCN4C[C@H](F)C5)nc3c2F)c1C(F)(F)F (single isomer, unassigned; isomer 2) [Example 173]

>  <IC50>
1890 nM

$$$$
>  <COMPOUND>
N#Cc1c(N)sc2c(F)ccc(-c3c(Cl)cc4c(N5CCCOC6CC65)nc(OC[C@@]56CCCN5C[C@H](F)C6)nc4c3F)c12 (single isomer, unassigned) [Example 213]

>  <IC50>
761 nM

$$$$
>  <COMPOUND>
C=C1CN2CCC[C@]2(COc2nc(N3CC4CCC(C3)N4)c3cc(Cl)c(-c4ccc(F)c5sc(N)c(C#N)c45)c(F)c3n2)C1 [Example 182]

>  <IC50>
4 nM

$$$$
>  <COMPOUND>
C=C1CN2CCC[C@@]2(COc2nc(N3CC4CCC(C3)N4)c3cc(Cl)c(-c4ccc(F)c5sc(N)c(C#N)c45)c(F)c3n2)C1 [Example 183]

>  <IC50>
254 nM

$$$$

Then this compound:
## Task # returns recorded IC50 (system: KRas-mediated Phosphorylation of ERK in AsPC-1 cells) for C=C1CN2CCC[C@]2(COc2nc(N3CC4CCC(C3)N4)c3cc(Cl)c(-c4ccc(F)c5sc(N)c(C#N)c45)c(F)c3n2)C1 [Example 181]
## Result 950 nM

----------
- Test system: KRas-mediated Phosphorylation of ERK in PSN1 cells
- ASSAY_COMMENT: Cisbio HTRF pERK assay, PSN1 cells
- Type: cell-based
- CONDITION_DETAILS: Homo sapiens, PSN1, 3 h, 3 hour compound, read-out: Inhibition (HTRF IC50 nM) of KRas-mediated Phosphorylation of ERK, PSN1
ATTRIBUTE_MEASURED: IC50 (nM)
The reply should be a number in nM, with the unit left off.

>  <MOLECULE>
CN(C)C(=O)c1cc2n(n1)CCCN(c1nc(OC[C@@]34CCCN3C/C(=C\F)C4)nc3c(F)c(-c4ccc(F)c5sc(N)c(C#N)c45)c(Cl)cc13)C2 (atropisomer, axis not shown)

>  <ENDPOINT_RESULT>
115

$$$$
>  <MOLECULE>
N#Cc1c(N)sc2c(F)ccc(-c3c(Cl)cc4c(N5CCCn6nc(N)cc6C5)nc(OC[C@@]56CCCN5C[C@H](F)C6)nc4c3F)c12

>  <ENDPOINT_RESULT>
1060

$$$$
>  <MOLECULE>
N#Cc1c(N)sc2c(F)ccc(-c3c(Cl)cc4c(N5CCC5CO)nc(OC[C@@]56CCCN5C[C@H](F)C6)nc4c3F)c12 (stereo partly drawn)

>  <ENDPOINT_RESULT>
1690

$$$$

## Task // lookup IC50 for N#Cc1c(N)sc2c(F)ccc(-c3c(C4CC4)cc4c(N5C[C@H]6CC[C@@H](C5)N6)nc(OC[C@@]56CCCN5C[C@H](F)C6)nc4c3F)c12
## Result 2390

## Task Fill blank: measured IC50 of the molecule N#Cc1c(N)sc2c(F)ccc(-c3c(Cl)cc4c(N5CCCCCC5)nc(OC[C@@]56CCCN5C[C@H](F)C6)nc4c3F)c12 is ____.
## Result 1190

----------
- STUDY_TARGET: KRas^WT (Homo sapiens, UniProt P01116)
- Construct: Biotinylated KRas (corresponding to amino acids 1-169, produced at Accelegan Inc.); biotin (biotinylated); purchased Accelegan Inc
- Sequence (P01116 1-169 isoform P01116-2): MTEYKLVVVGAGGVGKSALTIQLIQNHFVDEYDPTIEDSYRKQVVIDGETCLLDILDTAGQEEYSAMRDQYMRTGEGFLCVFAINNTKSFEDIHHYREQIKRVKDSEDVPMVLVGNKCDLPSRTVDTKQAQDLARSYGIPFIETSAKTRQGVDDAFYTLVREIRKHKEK
- ASSAY_COMMENT: KRas TR-FRET tracer displacement binding assay, WT
- CONDITION_DETAILS: 60-minute incubation
ATTRIBUTE_MEASURED: IC50 (nM)
# unit: nM | format: bare number

Solved cases (3 shown):
>  <COMPOUND>
Cc1c(F)c(N)nc(-c2c(Cl)cc3c(NC(C)c4cccnc4N)nc(OC[C@@]45CCCN4C[C@H](F)C5)nc3c2F)c1C(F)(F)F (single isomer, unassigned; isomer 1) [Example 172]

>  <STUDY_TARGET>
KRas^WT (Homo sapiens, UniProt P01116)

>  <RESULT_UNITS>
nM

>  <ENDPOINT_RESULT>
11

$$$$
>  <COMPOUND>
N#Cc1c(N)sc2c(F)ccc(-c3c(C4CC4)cc4c(N5C[C@H]6CC[C@@H](C5)N6)nc(OC[C@@]56CCCN5C[C@H](F)C6)nc4c3F)c12

>  <STUDY_TARGET>
KRas^WT (Homo sapiens, UniProt P01116)

>  <RESULT_UNITS>
nM

>  <ENDPOINT_RESULT>
4

$$$$
>  <COMPOUND>
N#Cc1c(N)sc2c(F)ccc(-c3c(Cl)cc4c(N5CCCCC(F)C5)nc(OC[C@@]56CCCN5C[C@H](F)C6)nc4c3F)c12 (stereo partly drawn)

>  <STUDY_TARGET>
KRas^WT (Homo sapiens, UniProt P01116)

>  <RESULT_UNITS>
nM

>  <ENDPOINT_RESULT>
2

$$$$

## Task Which IC50 is reported for this compound? C[C@@]1(O)CCCN(c2nc(OC[C@@]34CCCN3C[C@H](F)C4)nc3c(F)c(-c4ccc(F)c5sc(N)c(C#N)c45)c(F)cc23)C1
## Result 7

## Task What measured IC50 goes with CC(Oc1nc(N(C)C)c2cc(F)c(-c3ccc(F)c4sc(N)c(C#N)c34)c(F)c2n1)C12CCCN1CCC2 (single isomer, unassigned; isomer 1) [Example 177] ?
## Result 40

----------
- Test system: KRas-mediated Phosphorylation of ERK in AsPC-1 cells
- ASSAY_COMMENT: Cisbio HTRF pERK assay, AsPC-1 cells
- Assay type: cell-based
- CONDITION_DETAILS: 3 hrs compound, read-out: Inhibition (HTRF IC50 nM) of KRas-mediated Phosphorylation of ERK, AsPC-1
Entries annotated with measured IC50
Form entry: value (nM) — number only.

Completed entries (count: 5):
>  <MOLECULE>
N#Cc1c(N)sc2c(F)ccc(-c3c(Cl)cc4c(N5CCCn6nc(N)c(Cl)c6C5)nc(OC[C@@]56CCCN5C[C@H](F)C6)nc4c3F)c12 (atropisomer, axis not shown; (aS)) [Example 189]

>  <STUDY_TARGET>
KRas-mediated Phosphorylation of ERK in AsPC-1 cells

>  <IC50 (nM)>
472

$$$$
>  <MOLECULE>
CN(C)C(=O)n1cc2c(n1)CCCN(c1nc(OC[C@@]34CCCN3C[C@H](F)C4)nc3c(F)c(-c4ccc(F)c5sc(N)c(C#N)c45)c(Cl)cc13)C2 [Example 185]

>  <STUDY_TARGET>
KRas-mediated Phosphorylation of ERK in AsPC-1 cells

>  <IC50 (nM)>
2

$$$$
>  <MOLECULE>
N#Cc1c(N)sc2c(F)ccc(-c3c(Cl)cc4c(N5CC6CCC(C5)N6)nc(OC[C@@]56CCCN5C/C(=C\F)C6)nc4c3F)c12 [Example 180]

>  <STUDY_TARGET>
KRas-mediated Phosphorylation of ERK in AsPC-1 cells

>  <IC50 (nM)>
1

$$$$
>  <MOLECULE>
CN(C)C(=O)n1cc2c(n1)CCCN(c1nc(OC[C@@]34CCCN3C[C@H](F)C4)nc3c(F)c(-c4ccc(F)c5sc(N)c(C#N)c45)c(Cl)cc13)C2 (atropisomer, axis not shown; (aS)) [Example 186]

>  <STUDY_TARGET>
KRas-mediated Phosphorylation of ERK in AsPC-1 cells

>  <IC50 (nM)>
162

$$$$
>  <MOLECULE>
C=C1CN2CCC[C@@]2(COc2nc(N3CC4CCC(C3)N4)c3cc(Cl)c(-c4ccc(F)c5sc(N)c(C#N)c45)c(F)c3n2)C1 [Example 184]

>  <STUDY_TARGET>
KRas-mediated Phosphorylation of ERK in AsPC-1 cells

>  <IC50 (nM)>
1

$$$$

## Task // returns reported IC50 for input N#Cc1c(N)sc2c(F)ccc(-c3c(Cl)cc4c(N5CCCn6nc(N)c(Cl)c6C5)nc(OC[C@@]56CCCN5C[C@H](F)C6)nc4c3F)c12 (atropisomer, axis not shown; (aS)) [Example 188]
## Result 3

## Task Please report the recorded IC50 for C[C@@]1(O)COCCN(c2nc(OC[C@@]34CCCN3C[C@H](F)C4)nc3c(F)c(-c4ccc(F)c5sc(N)c(C#N)c45)c(Cl)cc23)C1 (atropisomer, axis not shown; (aS)) [Example 193] .
## Result 414
